viability, T/C values, listed per item
Tested on: 926638-142-R-J1-PDC complex spheroid viability
Experiment: Anticancer human tumor 926638-142-R-J1-PDC patient-derived endometrial carcinoma cell line growth inhibition [POLQ]
Details: second compound 0.316 µM; first compound 0.0316 µM; stronger effect = lower value
Experimental: Multicellular complex tumor spheroid response to Polymerase (POL) inhibitors (novobiocin, ART-558, RP6685) in combination with a variety of drugs and investigational agents in selected tumor cell lines The POL inhibitors (novobiocin, ART-558, and RP6685) were evaluated both individually and in combination with standard of care and investigational anticancer small molecules within a complex spheroid model of solid tumors. . […]
// return numeric value only (unit: %, not printed)

Worked cases, viability, T/C given:
{"molecule": "O=C(Nc1ccc(O)c(NS(=O)(=O)c2ccc(F)cc2)c1)c1ccc(-c2ccccc2)cc1 + COC1C(OC(N)=O)C(O)C(Oc2ccc3c(O)c(NC(=O)c4ccc(O)c(CC=C(C)C)c4)c(=O)oc3c2C)OC1(C)C", "unit.symbol": "%", "viability, T/C": 108}
{"molecule": "CCc1c2c(nc3ccc(O)cc13)-c1cc3c(c(=O)n1C2)COC(=O)[C@]3(O)CC + COC1C(OC(N)=O)C(O)C(Oc2ccc3c(O)c(NC(=O)c4ccc(O)c(CC=C(C)C)c4)c(=O)oc3c2C)OC1(C)C", "unit.symbol": "%", "viability, T/C": 32}
{"molecule": "CNCc1ccc(-c2[nH]c3cc(F)cc4c3c2CCNC4=O)cc1 + Nc1ccc(C#CCN(C(=O)Cc2ncc(C(F)(F)F)cc2C(F)(F)F)c2ccc(F)cc2)nn1", "unit.symbol": "%", "viability, T/C": 101}
{"molecule": "C#Cc1c(F)ccc2cc(O)cc(-c3ncc4c(N5CC6CCC(C5)N6)nc(OCC56CCCN5CC(F)C6)nc4c3F)c12 (stereo not given) + COC1C(OC(N)=O)C(O)C(Oc2ccc3c(O)c(NC(=O)c4ccc(O)c(CC=C(C)C)c4)c(=O)oc3c2C)OC1(C)C", "unit.symbol": "%", "viability, T/C": 97.1}

Then this molecule:
Using the record for COc1cc2cc(C(=O)CCC(=O)O)sc2cc1OC + Cc1cccc(N(C)C(=O)C2C(O)CCN2c2nc(C)cc(C(F)(F)F)c2C#N)c1 , report its viability, T/C. 119

---

Tested on: 926638-142-R-J1-PDC complex spheroid viability
Assay: Anticancer human tumor 926638-142-R-J1-PDC cell line growth inhibition [POLQ];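 further: spheroids exposed to drugs for one week before readout; percent viability relative to DMSO vehicle control wells set as 100%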
Conditions: second compound 3.16 µM; first compound 0.1 µM; stronger effect = lower value
just bin them by viability, T/C: bin 0 = under 60%, bin 1 = from 60% up to 90%, bin 2 = 90% and over

Study these solved cases before continuing.
{"compound": "COc1cc2cc(C(=O)CCC(=O)O)sc2cc1OC + Cc1cccc(N(C)C(=O)C2C(O)CCN2c2nc(C)cc(C(F)(F)F)c2C#N)c1", "label.class": "bin 2"}
{"compound": "CCc1cc2c(N3CCc4c(cc(Cn5ccnc5)cc4-c4cn(C)nc4C(F)(F)F)C3=O)ccnc2c(OC)n1 + COC1C(OC(N)=O)C(O)C(Oc2ccc3c(O)c(NC(=O)c4ccc(O)c(CC=C(C)C)c4)c(=O)oc3c2C)OC1(C)C", "label.class": "bin 0"}
{"compound": "CC[C@@]1(O)C(=O)OCc2c1cc1n(c2=O)Cc2cc3c(CN(C)C)c(O)ccc3nc2-1 + COC1C(OC(N)=O)C(O)C(Oc2ccc3c(O)c(NC(=O)c4ccc(O)c(CC=C(C)C)c4)c(=O)oc3c2C)OC1(C)C", "label.class": "bin 0"}
{"compound": "O=C(c1cc(Cc2n[nH]c(=O)c3ccccc23)ccc1F)N1CCN(C(=O)C2CC2)CC1 + Cc1cccc(N(C)C(=O)C2C(O)CCN2c2nc(C)cc(C(F)(F)F)c2C#N)c1", "label.class": "bin 2"}
{"compound": "C#Cc1c(F)ccc2cc(O)cc(-c3ncc4c(N5CC6CCC(C5)N6)nc(OCC56CCCN5CC(F)C6)nc4c3F)c12 (stereo unspecified) + Cc1cccc(N(C)C(=O)C2C(O)CCN2c2nc(C)cc(C(F)(F)F)c2C#N)c1", "label.class": "bin 1"}

Form field 'band' for CCc1cc2c(N3CCc4c(cc(Cn5ccnc5)cc4-c4cn(C)nc4C(F)(F)F)C3=O)ccnc2c(OC)n1 + Cc1cccc(N(C)C(=O)C2C(O)CCN2c2nc(C)cc(C(F)(F)F)c2C#N)c1 bin 1

Form field 'band' for CC(C)n1c(=O)n(C)c2cnc3cc(F)c(-c4ccc(OCCCN5CCCCC5)nc4)cc3c21 + Cc1cccc(N(C)C(=O)C2C(O)CCN2c2nc(C)cc(C(F)(F)F)c2C#N)c1 bin 2

These data points were gathered from PubChem BioAssay AID1963826.
